Sourced from PubChem BioAssay (NCI)

tested on: OVCAR-5 ovarian; test: NCI tumour cell line growth inhibition, 48 h
Parameter TGI: see the listing below.

For orientation, consider the following solved cases.
> print(dat)
                                   compound     assay.target  endpoint.value
1  COc1ccc(C2=NN(C(N)=S)C(c3ccccc3)C2)cc1 (stereo not drawn)  OVCAR-5 ovarian        > 100 µM
2                  S=C1CSc2c(ccc3ccccc23)N1  OVCAR-5 ovarian        > 100 µM

[Q] Reported TGI, compound Cc1cc(NCc2cc(Nc3ccnc4cc(Cl)ccc34)ccc2F)nc(N2CCN(C)CC2)n1 : ____
[A] 5.17 µM

---

// TGI lookup, one value per entry
tested on: SK-MEL-28 melanoma; test: NCI tumour cell line growth inhibition, 48 h

Illustrative cases are given below, each with its answer.
compound	assay-target	endpoint-value
Nc1nc(N)c2c(n1)NC(c1ccc(F)cc1)C1CCc3ccccc3C1=N2 (stereo not drawn)	SK-MEL-28 melanoma	19.7 µM
Cc1c2c(Cl)c3c(c(Cl)c2c(C)c2c(Cl)c4c(c(Cl)c12)C(c1ccccc1)(c1ccccc1)C4(c1ccccc1)c1ccccc1)C(c1ccccc1)(c1ccccc1)C3(c1ccccc1)c1ccccc1	SK-MEL-28 melanoma	> 100 µM
COc1cc(/C=C/C(=O)c2c(C)nc3ccccc3c2/C=C/c2ccc(C)cc2)cc(OC)c1OC	SK-MEL-28 melanoma	3.91 µM
COc1ccc(/C(=N\O)c2cc(C)c(OC)c(C)c2)cc1O	SK-MEL-28 melanoma	> 100 µM
COc1ccc2c(c1)Oc1cc(O)ccc1[C@@H]2c1ccccc1C(=O)NC(C)c1ccccc1 (stereo partly drawn)	SK-MEL-28 melanoma	31.3 µM
Cc1c(F)c(N)c2c(=O)cc(-c3ccc(N)c(F)c3)oc2c1F	SK-MEL-28 melanoma	> 95.2 µM

[Q] Given the entry N#CCCN(c1ccc(C=Nc2ccccc2Cl)cc1)S(=O)(=O)c1ccccc1 , report its measured TGI.
[A] > 100 µM

[Q] Would you mind doing O=C(NNCc1ccco1)c1cc2ccccc2[nH]1 as well?
[A] > 100 µM

---

TGI overview
system: NCI-H522 lung; test: NCI tumour cell line growth inhibition, 48 h

> print(dat)
                                   compound  endpoint.value
1  O=S(Nc1ccccc1)c1ccc(Cl)c(Cl)c1 (stereo unspecified)        > 100 µM

[Q] Quick one: TGI of Cc1ccc2c(c1)CC1(Cc3c(C)cccc3C1=O)C2=O (stereo unspecified) ?
[A] > 100 µM

[Q] Continue with COc1ccccc1N1CCN(CCc2c[nH]c3cc4c(cc23)OCO4)CC1
[A] > 100 µM

[Q] Subsequent entry: COc1ccc(-n2cc(-c3cc(OC)c(OC)c(OC)c3)nc2SCc2ccccc2)cc1OC
[A] > 100 µM

[Q] Try the compound CC(C)=c1sc(=C(C)C)c2c1=NC(C)(C)N=2
[A] > 100 µM

[Q] // next record Cc1ccc2c(c1)C(C)Cc1c(Cl)ncnc1N2C (stereo unspecified)
[A] 8.03 µM

[Q] // query: CN1CC[C@]2(C)c3cc(O)ccc3CC3CCCC1C32C (stereo partly specified)
[A] > 100 µM

[Q] Also Cc1[nH]c(=O)n2c(C)nnc2c1C(=O)Nc1cc(Cl)cc(Cl)c1 ?
[A] 28.2 µM

[Q] Also O=C1C=CC[C@H](/C=C/c2ccccc2)O1 ?
[A] > 25.4 µM
